The measured values listed here are drawn from patent US20250034594A1.

test system: gene editing with Cas9; assay: Screen of 322 new SSAP proteins, gene editing activity with Cas9 (Table 5); format: cell-based; settings: normalized
measurement name: Cas9 with SSAP activity (normalized)
Lab note: write the figure by itself, no unit.

input: Look up Cas9 with SSAP activity (normalized) for this molecule: SSAP_122: SEQ ID NO: 291; Clostridium transplantifaecale (protein, Clostridium transplantifaecale) TDVKEELARKAGNTGKQEIRLNKNMSIPDMVKVLEPEIKRALPSVLTPERFTRMALSAINNTPKLAECSPMSFIAALMNAAQLGLEPNTPLGQAYLIPYKNKNQLECQFQIGYKGYIDLAYRTGQVQMIQAQAVHEFDYFEYEYGLTPKLVHRPGEGERGEITYFYGLFKMINGGFGFEVMNRAAMDAFAKQYSQSINSKYSPWNSQYEEMAKKTIIKKALKYGPVKSDFQKAISMDESIKTELSIDMSEVRNEDLIDGEFEEAA
output: 0.558
